# Test system: HT-29
# assay: NCI tumour cell line growth inhibition, 48 h
The source made the active and inactive calls. No stated cut-off is given here; in the data, active = GI50 up to about 1.1 µM and inactive = higher.
Entries and their GI50 values follow.
assay readout: GI50

CC1(C)C2C/C(=C\c3ccccc3)C(=O)C1C2 (stereo not given); 87.9 µM (inactive)
CC(=O)C(CN1C(=O)c2ccccc2C1=O)C(C)=O; > 100 µM (inactive)
CC12CCC(=O)N1c1cncnc1N2 (stereo not given); > 10 µM (inactive)
Cc1cc(O)c2c(c1O)C(=O)c1cccc(O)c1C2=O [ISLANDICIN]; > 100 µM (inactive)
CS(=O)(=O)OCCCCOS(=O)(=O)CF; > 100 µM (inactive)

###

# Test system: SF-539
# assay: NCI tumour cell line growth inhibition, 48 h
Activity calls are given as the source filed them. Cut-off read from the data, not from the text of the source: active = GI50 up to about 1.1 µM and inactive = higher.
Outcome codes: TRUE = active, FALSE = inactive

CN1C(c2ccccc2)CC(=O)C(N)C1c1ccccc1 (stereo not given); FALSE
CC(=O)OC1=C(c2ccccc2)S(=O)(=O)c2ccccc21; FALSE
OCC1OC(O)C(/N=C\c2ccc3c(c2)OCO3)C(O)C1O (stereo not given); FALSE
COc1ccc(C2c3cc4c(cc3C(O)C3CCC(=O)N23)OCO4)cc1 (stereo not given); FALSE
C=C(C)C[C@H](Sc1nc2ccccc2s1)[C@H](C)O; FALSE
Oc1c(N2CCCCC2)cc(-c2cc(N3CCCCC3)c(O)c3ccccc23)c2ccccc12; FALSE
COc1cc2c(c(OC)c1OC)-c1ccc(OC)c(=O)cc1C(NC(=O)CCCCCNc1ccc(N=[N+]=[N-])cc1[N+](=O)[O-])CC2 (stereo not given); TRUE
COc1ccc(/C(Cl)=C(/c2ccc(O)cc2)c2ccc(OCCN(C)C)cc2)cc1; FALSE
CC1CCc2c(sc3ncnc(N/N=C/c4ccc(Cl)c(Cl)c4)c23)C1 (stereo not given); FALSE
N#Cc1cc([N+](=O)[O-])ccc1NC(=O)C(=O)Nc1n[nH]c(N)n1; FALSE
CC(=O)c1c2c(cc3c1CC1(Cc4cc5c(cc4C1)CCCC5)C3)CCCC2; FALSE
Nc1ccc(C(=O)N/C(=C\c2cccc([N+](=O)[O-])c2)c2nc3c(O)nc(S)nc3[nH]2)cc1; FALSE
CC(=O)OCCOCNC(=S)N/N=C/c1ccc(Br)s1; FALSE
CN1C/C(=C\C=C\c2ccccc2)C(=O)/C(=C/C=C/c2ccccc2)C1; FALSE
N#Cc1ccc(/C=N/NC(=O)CSCC(=O)N/N=C/c2ccc(C#N)cc2)cc1; FALSE
N=C(N)c1ccc(/N=N/c2c(O)ccc3cc(O)ccc23)cc1; FALSE
Cc1ccccc1/N=N/c1c(-c2ccccc2)nn(C(=O)CC(=O)Nc2cccc(Cl)c2)c1-c1ccccc1; FALSE
O=C(Nc1ccc2ccccc2c1)Nn1cnnc1; FALSE
CC(=O)NC(CCCNC(=O)NCCCl)C(=O)NCc1ccccc1 (stereo not given); FALSE
Oc1nnnc2c1sc1ncccc12; FALSE
CCOC(=O)C(NC(=O)CC)(Nc1cc(C)on1)C(F)(F)F (stereo not given); FALSE
CCCNC(=O)Cn1c2c(c3ccccc31)CCCC2; FALSE
Nc1ccccc1C(=O)NC(=O)Nc1ccc(Oc2ncc(Br)cn2)c(Cl)c1; TRUE
COc1cccc(-c2ccc3c4c2O[C@H]2c5[nH]c6ccccc6c5C[C@@]5(O)[C@@H](C3)N(CC3CC3)CC[C@]425)c1; FALSE
CCCCCC(=O)NC(=S)Nc1nnn[nH]1; FALSE
CCCCCCCCCCCCP(=O)(O)OCC(N)C(=O)O (stereo not given); FALSE
O=C1NCCS(=O)(=O)N2CCC[C@@H]12; FALSE
CN(CCSCCN(C)C(=O)OC(C)(C)C)C(=O)OC(C)(C)C; FALSE
O=c1[nH]nc(Cc2c[nH]c3ccccc23)o1; FALSE
COc1cc(C2c3cc4c(cc3[C@@H](NCCN3CCCCC3)C3COC(=O)[C@H]23)OCO4)cc(OC)c1O (stereo not given in full); TRUE
